Attribution: ChEMBL document CHEMBL3091445

assay: Displacement of [3H]epibatidine from calf adrenal alpha3beta4 nAChR after 90 mins by liquid scintillation counting analysis; set-up: species or system Bos taurus
pKi: −log10 of the molar value.
I'd appreciate it if you could supply pKi values for the items below.

// lookup pKi for COc1ccc(C#CC(=O)N2C[C@@H]3CNC[C@@H](C3)C2)cc1
< 6.00

// returns reported pKi for input O=C(/C=C/c1cccs1)N1C[C@@H]2CNC[C@@H](C2)C1
5.70

Fill blank: measured pKi of the molecule O=C(Cc1cccnc1)N1C[C@@H]2CNC[C@@H](C2)C1 is ____.
< 6.00

* * *

target: Neuronal acetylcholine receptor; alpha3/beta4 (Homo sapiens) (UniProt P30926+P32297); test: Agonist activity at human alpha3beta4 nAChR expressed in Xenopus oocytes at 10 uM incubated for 8 secs followed by compound washout measured after 241 secs by two-electrode voltage clamp technique; assay type: cell-based
Calls of active or inactive are those of the source. No cut-off for these calls is given here.
Parameter call: string, one of T for active, F for inactive

Short answer needed: outcome of this test for O=C([C@@H]1C[C@H]1c1ccccc1)N1C[C@@H]2CNC[C@@H](C2)C1 ?
T

Write down the call the test reported for this molecule. Item: O=C(/C=C/c1ccc2c(c1)OCO2)N1C[C@@H]2CNC[C@@H](C2)C1
F

What outcome does the record of this test show for CS(=O)(=O)c1ccc(CC(=O)N2C[C@@H]3CNC[C@@H](C3)C2)cc1 ?
F

Tell me the assay call for O=C(CCc1ccccc1)N1C[C@@H]2CNC[C@@H](C2)C1 please.
F

What call does the record list for O=C(c1ccc(-n2ccnc2)cc1)N1C[C@@H]2CNC[C@@H](C2)C1 ?
F

Lab log entry: O=C(Cc1ccc2ccccc2c1)N1C[C@@H]2CNC[C@@H](C2)C1 — outcome as called in the assay?
F

Call for entry COc1ccc(C#CC(=O)N2C[C@@H]3CNC[C@@H](C3)C2)cc1Cl :
F

Outcome? O=C(/C=C/c1cccc(Cl)c1)N1C[C@@H]2CNC[C@@H](C2)C1
F

I would be grateful if you could indicate the recorded call for O=C(/C=C/c1cccnc1)N1C[C@@H]2CNC[C@@H](C2)C1 .
F

Recorded test call requested for COc1ccc(C#CC(=O)N2C[C@@H]3CNC[C@@H](C3)C2)cc1OC
F

Given O=C(c1ccc(-c2ccncc2)cc1)N1C[C@@H]2CNC[C@@H](C2)C1 , state the outcome it received in this test.
F

Hi, sorry to bother you, what did the test record for O=C(c1ccc(-c2cccnc2)cc1)N1C[C@@H]2CNC[C@@H](C2)C1 ?
F

Can you look up the reported call for O=C(C#Cc1ccc2c(c1)OCO2)N1C[C@@H]2CNC[C@@H](C2)C1 for me?
F

* * *

target: Neuronal acetylcholine receptor; alpha4/beta2 (Rattus norvegicus, UniProt P09483+P12390); assay: Displacement of [3H]epibatidine from Sprague-Dawley rat brain alpha4beta2 nAChR after 90 mins by liquid scintillation counting analysis
Sequence (P09483 whole entry): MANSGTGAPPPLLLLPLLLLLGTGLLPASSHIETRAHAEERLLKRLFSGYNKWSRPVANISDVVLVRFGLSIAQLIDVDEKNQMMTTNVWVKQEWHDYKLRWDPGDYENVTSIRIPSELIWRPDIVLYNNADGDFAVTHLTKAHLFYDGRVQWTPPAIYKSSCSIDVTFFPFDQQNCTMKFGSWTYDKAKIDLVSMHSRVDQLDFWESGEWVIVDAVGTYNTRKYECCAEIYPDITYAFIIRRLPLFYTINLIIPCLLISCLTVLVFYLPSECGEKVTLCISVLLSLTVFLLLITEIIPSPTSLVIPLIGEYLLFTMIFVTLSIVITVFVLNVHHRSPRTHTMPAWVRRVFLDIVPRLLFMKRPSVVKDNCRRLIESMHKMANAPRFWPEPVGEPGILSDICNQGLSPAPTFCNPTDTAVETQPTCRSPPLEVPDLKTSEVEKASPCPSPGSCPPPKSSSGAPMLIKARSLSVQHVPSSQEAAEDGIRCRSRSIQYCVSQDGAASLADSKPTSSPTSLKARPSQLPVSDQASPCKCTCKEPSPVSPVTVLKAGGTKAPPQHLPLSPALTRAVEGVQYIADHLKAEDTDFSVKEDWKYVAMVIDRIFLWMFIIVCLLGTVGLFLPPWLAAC
Sequence (P12390 whole entry): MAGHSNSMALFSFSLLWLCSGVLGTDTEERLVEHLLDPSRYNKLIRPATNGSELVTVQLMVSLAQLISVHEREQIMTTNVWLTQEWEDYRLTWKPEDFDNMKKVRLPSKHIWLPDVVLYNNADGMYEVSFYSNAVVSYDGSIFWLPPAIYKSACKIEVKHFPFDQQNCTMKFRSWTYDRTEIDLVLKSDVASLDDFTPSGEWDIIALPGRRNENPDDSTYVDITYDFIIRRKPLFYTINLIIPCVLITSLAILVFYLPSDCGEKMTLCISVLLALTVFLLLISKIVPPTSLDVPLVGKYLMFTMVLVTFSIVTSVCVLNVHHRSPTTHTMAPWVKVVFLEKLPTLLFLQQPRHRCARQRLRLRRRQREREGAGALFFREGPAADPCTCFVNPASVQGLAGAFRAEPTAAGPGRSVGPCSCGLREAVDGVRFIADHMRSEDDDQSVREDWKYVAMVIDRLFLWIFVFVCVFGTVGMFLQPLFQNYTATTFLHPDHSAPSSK
What Ki was measured for each of the following?

Please look up its Ki: O=C(/C=C/c1cccc([N+](=O)[O-])c1)N1C[C@@H]2CNC[C@@H](C2)C1
38.9 nM

Bench note: what Ki did COc1cc(CCC(=O)N2C[C@@H]3CNC[C@@H](C3)C2)cc(OC)c1OC show?
233 nM

Bench note: what Ki did COc1ccc(C#CC(=O)N2C[C@@H]3CNC[C@@H](C3)C2)cc1Cl show?
0.991 nM

Which Ki is reported for this compound? O=c1c(-c2ccccc2)ccc2n1C[C@@H]1CNC[C@H]2C1
128 nM

Return reported Ki; argument: O=C(C#Cc1cccc(F)c1)N1C[C@@H]2CNC[C@@H](C2)C1
7.1 nM

* * *

biological target: Neuronal acetylcholine receptor; alpha4/beta2 (Rattus norvegicus, UniProt P09483+P12390); assay: Displacement of [3H]epibatidine from Sprague-Dawley rat brain alpha4beta2 nAChR after 90 mins by liquid scintillation counting analysis
Kindly supply the reported Ki values for the records listed here.

Checklist item: Ki tested on Neuronal acetylcholine receptor; alpha4/beta2 (Rattus norvegicus, UniProt P09483+P12390), entry O=C(Cc1ccc2ccccc2c1)N1C[C@@H]2CNC[C@@H](C2)C1 , value?
10.2 nM

Please state recorded Ki (tested on Neuronal acetylcholine receptor; alpha4/beta2 (Rattus norvegicus, UniProt P09483+P12390)) of O=C(/C=C/c1cccnc1)N1C[C@@H]2CNC[C@@H](C2)C1
32.6 nM

Recall the recorded Ki for COc1ccc(C#CC(=O)N2C[C@@H]3CNC[C@@H](C3)C2)cc1OC with Neuronal acetylcholine receptor; alpha4/beta2 (Rattus norvegicus, UniProt P09483+P12390) and state it.
2.1 nM

Lab request: please report Ki under test system Neuronal acetylcholine receptor; alpha4/beta2 (Rattus norvegicus, UniProt P09483+P12390) for O=C(/C=C/c1ccc2c(c1)OCO2)N1C[C@@H]2CNC[C@@H](C2)C1
36.9 nM

Identify the measured Ki of O=c1c(-c2ccc3c(c2)OCO3)ccc2n1C[C@@H]1CNC[C@H]2C1 for Neuronal acetylcholine receptor; alpha4/beta2 (Rattus norvegicus, UniProt P09483+P12390).
110 nM

* * *

assay: Displacement of [3H]epibatidine from Torpedo californica electroplax (alpha1)2beta1gammadelta nAChR after 90 mins by liquid scintillation counting analysis; parameters: species or system Tetronarce californica
pKi: −log10 of the molar value.
Please provide measured pKi for the entries that follow.

Query: pKi; subject: O=C(Cc1ccncc1)N1C[C@@H]2CNC[C@@H](C2)C1
< 5.30

State the recorded pKi for this entry: O=C(Cc1ccc2ccccc2c1)N1C[C@@H]2CNC[C@@H](C2)C1
< 5.30

Would you kindly share the measured pKi for O=C(Cc1ccc2c(c1)OCO2)N1C[C@@H]2CNC[C@@H](C2)C1 ?
< 5.30

// lookup pKi for O=C(/C=C/c1ccc(F)cc1)N1C[C@@H]2CNC[C@@H](C2)C1
< 5.00

Can you look up the measured pKi of O=C(/C=C/c1cccnc1)N1C[C@@H]2CNC[C@@H](C2)C1 for me?
< 5.30

What pKi value was documented for this molecule, O=C(/C=C/c1ccncc1)N1C[C@@H]2CNC[C@@H](C2)C1 ?
< 5.30

What measured pKi goes with O=C(C#Cc1cccc2ccccc12)N1C[C@@H]2CNC[C@@H](C2)C1 ?
< 5.30

pKi for COc1ccccc1/C=C/C(=O)N1C[C@@H]2CNC[C@@H](C2)C1 ?
< 5.00

What does the data say about its pKi? Entry: O=C(Cc1cccnc1)N1C[C@@H]2CNC[C@@H](C2)C1
< 5.30

Query: pKi; subject: O=C(/C=C/c1ccccc1)N1C[C@@H]2CNC[C@@H](C2)C1
< 5.00

Look up pKi: O=c1cccc2n1C[C@@H]1CNC[C@H]2C1
5.89

So what does the record say about pKi for O=C(/C=C/c1ccc2c(c1)OCO2)N1C[C@@H]2CNC[C@@H](C2)C1 ?
< 5.30

Any idea what pKi was measured for O=C(c1ccc(-n2ccnc2)cc1)N1C[C@@H]2CNC[C@@H](C2)C1 ?
< 5.30

What does the data say about its pKi? Entry: O=c1c(-c2ccc3c(c2)OCO3)ccc2n1C[C@@H]1CNC[C@H]2C1
< 5.00

Consider the molecule O=C(C#Cc1ccccc1)N1C[C@@H]2CNC[C@@H](C2)C1 and give its measured pKi.
< 6.00

Which pKi value is on record for COc1ccc(C#CC(=O)N2C[C@@H]3CNC[C@@H](C3)C2)cc1Cl ?
< 5.30

Given the molecule O=C(/C=C/c1cccc2ccccc12)N1C[C@@H]2CNC[C@@H](C2)C1 , what is its reported pKi?
< 5.30

Name the reported pKi value associated with the molecule O=C(/C=C/c1cccc([N+](=O)[O-])c1)N1C[C@@H]2CNC[C@@H](C2)C1
< 5.00

Which measured pKi value corresponds to O=C(/C=C/c1ccco1)N1C[C@@H]2CNC[C@@H](C2)C1 ?
< 5.30

pKi for O=c1c(-c2ccncc2)ccc2n1C[C@@H]1CNC[C@H]2C1 ?
< 5.00

# pKi lookup, item Cc1ccc(C#CC(=O)N2C[C@@H]3CNC[C@@H](C3)C2)cc1
< 5.30

Entry O=C(COc1ccccc1Cl)N1C[C@@H]2CNC[C@@H](C2)C1 has what pKi?
< 5.30

Query (molecule): O=C(c1ccccc1)N1C[C@@H]2CNC[C@@H](C2)C1 ; field requested: pKi
< 5.00

Endpoint output: pKi of O=C(CCc1cccnc1)N1C[C@@H]2CNC[C@@H](C2)C1 . Value?
< 5.30

Given the molecule O=C(C#Cc1cccc(F)c1)N1C[C@@H]2CNC[C@@H](C2)C1 , what is its reported pKi?
< 5.30

Quick one: pKi for COc1cccc(C#CC(=O)N2C[C@@H]3CNC[C@@H](C3)C2)c1 ?
< 5.30

Query: pKi; subject: O=C(c1ccc(-c2ccncc2)cc1)N1C[C@@H]2CNC[C@@H](C2)C1
< 5.30

Recorded pKi for O=c1c(-c2ccccc2)ccc2n1C[C@@H]1CNC[C@H]2C1 , please?
< 5.00
